Here, each record is paired with measured pKi data.
Molecular target: hCRTH2 (Homo sapiens, UniProt Q9Y5Y4)
Construct: expressed in transfected cells; host or cells: HEK (human embryonic kidney) cells expressing hCRTH2; membrane preparation
Sequence (Q9Y5Y4 1-395): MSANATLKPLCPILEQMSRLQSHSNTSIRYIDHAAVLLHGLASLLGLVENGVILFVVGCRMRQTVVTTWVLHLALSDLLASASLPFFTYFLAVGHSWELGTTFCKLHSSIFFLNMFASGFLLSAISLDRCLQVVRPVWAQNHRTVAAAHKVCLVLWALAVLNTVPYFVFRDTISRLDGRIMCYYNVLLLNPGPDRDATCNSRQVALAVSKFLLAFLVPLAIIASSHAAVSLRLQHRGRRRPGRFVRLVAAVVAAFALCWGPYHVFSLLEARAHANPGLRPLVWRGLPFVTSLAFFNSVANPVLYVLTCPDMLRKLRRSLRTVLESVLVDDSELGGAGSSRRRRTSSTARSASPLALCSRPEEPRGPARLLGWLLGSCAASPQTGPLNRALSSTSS
Assay: Radioligand binding assay ([3H]PGD2 competition, HEK-hCRTH2 membranes)
Settings: [3H]PGD2 competition, Table B
pKi: −log10 of the molar value.

Some entries whose results are on file:
- Compound: "O=C(O)CCCCc1nc2cc(C(=O)NCC3(c4ccc(F)cc4)CC3)ccc2nc1-c1ccc(Cl)cc1"
  Recorded Endpoint: "pKi"
  Reading: "7.70 to 8.68"
- Compound: "C[C@@H](NC(=O)c1ccc2nc(-c3ccc(F)cc3)c(CCCCC(=O)O)nc2c1)c1ccc(F)c2ccccc12"
  Recorded Endpoint: "pKi"
  Reading: "6.70 to 7.70"
- Compound: "O=C(N[C@@H]1CCCc2ccccc21)c1ccc2nc(-c3ccc(F)cc3)c(CCCC(F)(F)C(=O)O)nc2c1"
  Recorded Endpoint: "pKi"
  Reading: "7.70 to 8.68"
- Compound: "O=C(O)CCCCc1nc2cc(C(=O)N3CCCC3c3ccccc3)ccc2nc1-c1ccc(Cl)cc1 (centres unmarked)"
  Recorded Endpoint: "pKi"
  Reading: "7.70 to 8.68"
- Compound: "Cc1nc(N2CCN(C(=O)c3ccc4nc(-c5ccc(Cl)cc5)c(CCCCC(=O)O)nc4c3)CC2)cn1C"
  Recorded Endpoint: "pKi"
  Reading: "6.70 to 7.70"

What measured pKi goes with CC(CCCc1nc2cc(C(=O)N[C@H](C)c3ccc(F)cc3)ccc2nc1-c1ccc(Cl)cc1)C(=O)O (some centres unmarked) [compound 409] ?
6.70 to 7.70

What measured pKi goes with O=C(O)C1CCC(Cc2nc3cc(C(=O)N4CC(c5cccc(F)c5)C4)ccc3nc2-c2ccc(Cl)cc2)C1 (centres unmarked) ?
7.70 to 8.68

What measured pKi goes with O=C(O)CCCCc1nc2cc(C(=O)NC3CCCc4cc(C(F)(F)F)cnc43)ccc2nc1-c1ccccc1 (centres unmarked) ?
6.70 to 7.70

What measured pKi goes with CN(C(=O)c1ccc2nc(-c3ccccc3)c(CCCCC(=O)O)nc2c1)[C@@H]1CCCc2ccccc21 ?
6.70 to 7.70

What measured pKi goes with O=C(N[C@H](c1ccc(Cl)cc1)C(F)(F)F)c1ccc2nc(-c3ccc(Cl)cc3)c(CC3CCC(C(=O)O)C3)nc2c1 (some centres unmarked) ?
6.70 to 7.70

----------
Here, each record is paired with measured pKi data.
Molecular target: hCRTH2 (Homo sapiens, UniProt Q9Y5Y4)
Construct: expressed in transfected cells; host or cells: HEK (human embryonic kidney) cells expressing hCRTH2; membrane preparation
Experiment: Radioligand binding assay ([3H]PGD2 competition, HEK-hCRTH2 membranes)
Settings: [3H]PGD2 binding, rated A-E (Table A)
pKi: −log10 of the molar value.

Some entries whose results are on file:
- Compound: "O=C(O)CCCCc1nc2cc(C(=O)N[C@@H](c3ccccc3)C(F)(F)F)ccc2nc1-c1ccccc1 [15F]"
  pKi: "7.70 to 8.68"
- Compound: "O=C(O)CCCCc1nc2cc(C(=O)NCc3ccc(C(F)(F)F)cc3)ccc2nc1-c1ccc(F)cc1 [compound 112]"
  pKi: "7.70 to 8.68"
- Compound: "O=C(O)CCCCc1nc2cc(C(=O)N3CCN(c4ccccc4)CC3)ccc2nc1-c1ccccc1 [15AN]"
  pKi: "7.70 to 8.68"
- Compound: "O=C(O)CCCNc1nc2cc(C(=O)N3CCN(c4ccc(F)cc4)CC3)ccc2nc1-c1ccccc1 [44H]"
  pKi: "7.70 to 8.68"

What measured pKi goes with O=C(O)CCCCc1nc2cc(C(=O)N3CCC(c4ccccc4)CC3)ccc2nc1-c1ccc(Br)cc1 [26AB] ?
8.70 to 10.00

What measured pKi goes with COc1ccc(CNC(=O)c2ccc3nc(-c4ccc(Cl)cc4)c(CCC(C)CC(=O)O)nc3c2)cc1 (stereo not shown) [17H] ?
7.70 to 8.68

What measured pKi goes with O=C(O)CCCC(O)c1nc2cc(C(=O)N[C@@H]3CCCc4ccccc43)ccc2nc1-c1ccc(Cl)cc1 (stereo partly shown) [compound 33] ?
6.70 to 7.70

What measured pKi goes with O=C(O)CCCCc1nc2cc(C(=O)N3CC=C(c4ccccc4)CC3)ccc2nc1-c1ccccc1 [compound 116] ?
7.70 to 8.68

What measured pKi goes with O=C(O)CCCCc1nc2cc(C(=O)N3CCC4(CC3)C(=O)NCN4c3ccccc3)ccc2nc1-c1ccc(F)cc1 [compound 126] ?
7.70 to 8.68

What measured pKi goes with O=C(NCc1cccc(Cl)c1)c1ccc2nc(-c3ccccc3)c(CCCCc3nnn[nH]3)nc2c1 [22D] ?
6.70 to 7.70

----------
Here, each record is paired with measured Ki data.
Biological target: hCRTH2 (Homo sapiens)
Construct: expressed in transfected cells; host or cells: HEK (human embryonic kidney) cells expressing hCRTH2; membrane preparation
Assay: Radioligand binding assay ([3H]PGD2 competition, HEK-hCRTH2 membranes)
Conditions: [3H]PGD2 binding, rated A-E (Table A)

Some entries whose results are on file:
- Molecule: "C[C@H](NC(=O)c1ccc2nc(-c3ccc(C(F)(F)F)cc3)c(CCCCC(=O)O)nc2c1)c1ccccc1"
  Recorded Endpoint: "Ki"
  Reading: "2.1 to 20 nM"
- Molecule: "O=C(O)CCCCc1nc2cc(C(=O)N3CCC(c4ccccc4)C3)ccc2nc1-c1ccc(F)cc1 (stereo not shown)"
  Recorded Endpoint: "Ki"
  Reading: "0.1 to 2 nM"
- Molecule: "N#Cc1ccc(CNC(=O)c2ccc3nc(-c4ccccc4)c(CCCCC(=O)O)nc3c2)cc1 [15BB]"
  Recorded Endpoint: "Ki"
  Reading: "2.1 to 20 nM"
- Molecule: "C[C@@H](c1ccc(Cl)cc1)N(C)C(=O)c1ccc2nc(-c3ccccc3)c(CCCCC(=O)O)nc2c1"
  Recorded Endpoint: "Ki"
  Reading: "2.1 to 20 nM"
- Molecule: "O=C(O)CCCCc1nc2cc(C(=O)N3CCC(c4ncccn4)CC3)ccc2nc1-c1ccc(F)cc1"
  Recorded Endpoint: "Ki"
  Reading: "2.1 to 20 nM"

What measured Ki goes with C[C@@]1(c2ccccc2)CCCN(C(=O)c2ccc3nc(-c4ccccc4)c(CCCCC(=O)O)nc3c2)C1 ?
2.1 to 20 nM

What measured Ki goes with O=C(O)CCCCc1nc2cc(C(=O)N[C@@H](c3ccc(Cl)cc3)C(F)(F)F)ccc2nc1-c1ccc(Cl)cc1 [16W] ?
0.1 to 2 nM

----------
Target: hCRTH2 (Homo sapiens, UniProt Q9Y5Y4)
Construct: expressed in transfected cells; host or cells: HEK (human embryonic kidney) cells expressing hCRTH2; membrane preparation
Test: Radioligand binding assay ([3H]PGD2 competition, HEK-hCRTH2 membranes)
Conditions: [3H]PGD2 binding, rated A-E (Table A)
Here, each record is paired with measured Ki data.

Some entries whose results are on file:
- Compound: "COc1ccc(-c2nc3ccc(C(=O)N[C@H](C)c4ccc(F)cc4)cc3nc2CCCCC(=O)O)cc1 [compound 214]"
  Ki: "0.1 to 2 nM"
- Compound: "CC(CCCc1nc2cc(C(=O)N[C@@H](c3ccccc3)C(F)(F)F)ccc2nc1-c1ccc(C(F)(F)F)cc1)C(=O)O (some centres unmarked) [18H]"
  Ki: "2.1 to 20 nM"
- Compound: "CN(Cc1ccccc1)C(=O)c1ccc2nc(-c3ccccc3)c(CCCCC(=O)O)nc2c1 [15Ao]"
  Ki: "0.1 to 2 nM"

What measured Ki goes with CNC(=O)c1ccc2nc(-c3ccccc3)c(CCCCC(=O)O)nc2c1 [15BG] ?
2.1 to 20 nM

What measured Ki goes with O=C(O)CCCCc1nc2cc(C(=O)N3CCC(c4ccccc4)CC3)ccc2nc1-c1ccc(Cl)cc1 [16J] ?
2.1 to 20 nM

What measured Ki goes with CC(CCCc1nc2cc(C(=O)N[C@@H](c3ccccc3)C(F)(F)F)ccc2nc1-c1ccc(Cl)cc1)C(=O)O (some centres unmarked) [compound 163] ?
2.1 to 20 nM

What measured Ki goes with C[C@@H]1CN(c2ccccc2)CCN1C(=O)c1ccc2nc(-c3ccccc3)c(CCCCC(=O)O)nc2c1 [compound 41] ?
2.1 to 20 nM

What measured Ki goes with O=C(O)CCCCc1nc2cc(C(=O)N[C@H]3CCc4cc(F)ccc43)ccc2nc1-c1ccc(F)cc1 [compound 224] ?
0.1 to 2 nM
